remaining at 6 h by entry:
- protocolDetails: Plasma protein binding by equilibrium dialysis
- Assay type: in vitro ADME
- conditions: both sexes, CD-1; mouse plasma, 6 h
Value expressed in %; do not type the unit.

compound	units	remaining at 6 h
COc1cc2c(Nc3cccc(OC)c3Cl)c(C#N)cnc2cc1OCCON1CCN(C)CC1 [12a]	%	96.7

Query block: Fill blank: measured remaining at 6 h of the compound COc1cc(Cl)ccc1Nc1c(C#N)cnc2cc(OCCON3CCN(C)CC3)c(OC)cc12 [15a] is ____.
Result block: 106

----------
- protocolDetails: Plasma protein binding by equilibrium dialysis
- Type: in vitro ADME
- conditions: human plasma
%Unbound by entry:
Value expressed in %; do not type the unit.

Query block: Fill blank: measured %Unbound of the molecule COc1cc2c(Nc3cccc(OC)c3F)c(C#N)cnc2cc1OCCON1CCN(C)CC1 [13a] is ____.
Result block: 12.97

Query block: Now try COc1cc2c(Nc3cccc(OC)c3Cl)c(C#N)cnc2cc1OCCON1CCN(C)CC1 [12a] .
Result block: 7.37

Query block: Now try `COc1cc(Nc2c(C#N)cnc3cc(OCCON4CCN(C)CC4)c(OC)cc23)c(F)cc1Cl` .
Result block: 5.58

Query block: Now try COc1cc(Cl)ccc1Nc1c(C#N)cnc2cc(OCCON3CCN(C)CC3)c(OC)cc12 [15a] .
Result block: 7.73
